Test system: A431 and A431-B1 cell lines
measurement-notes: Selective toxicity in A431 and A431-B1 cell lines
Type: cell-based, human
conditions: A431 versus P-gp-transfected A431-B1
measure-name: Selectivity Ratio (SR) (A431/A431-B1)
Just the number, please, no unit attached.

Example cases with answers are listed next.
[
  {
    "compound": "CCN(CC)Cc1ccc2cccnc2c1O [NSC693872, 7-(N,N-diethylaminomethyl)quinolin-8-ol, reference compound]",
    "Selectivity Ratio (SR) (A431/A431-B1)": 1.9
  },
  {
    "compound": "Cl.Oc1c(CN2CCCC2)ccc2cccnc12 [NSC693871, reference compound]",
    "Selectivity Ratio (SR) (A431/A431-B1)": 3.8
  },
  {
    "compound": "COc1ccc(CNCc2cc([N+](=O)[O-])c3cccnc3c2O)cc1",
    "Selectivity Ratio (SR) (A431/A431-B1)": 12.6
  },
  {
    "compound": "O=C1NC2CCCCC2NC1c1cc(Cl)c2cccnc2c1O (mixture of isomers)",
    "Selectivity Ratio (SR) (A431/A431-B1)": 18.8
  },
  {
    "compound": "COc1ccc(CNCc2cc(Br)c3cccnc3c2O)cc1",
    "Selectivity Ratio (SR) (A431/A431-B1)": 11.2
  },
  {
    "compound": "COc1ccc(CNCc2cc([N+](=O)[O-])c3cccnc3c2O)cc1OC",
    "Selectivity Ratio (SR) (A431/A431-B1)": 11.5
  }
]

Fill blank: measured Selectivity Ratio (SR) (A431/A431-B1) of the compound `Oc1c(CNC2CCCCC2)cc(Cl)c2cccnc12` is ____.
11.5

Fill blank: measured Selectivity Ratio (SR) (A431/A431-B1) of the compound Oc1c(C2NCCc3sccc32)cc(Cl)c2cccnc12 (stereo not shown) is ____.
12.6

Fill blank: measured Selectivity Ratio (SR) (A431/A431-B1) of the compound `C/C(=N\Nc1ccc2ccc(CN3CCCCC3)c(O)c2n1)c1ccccn1` is ____.
14.4

Fill blank: measured Selectivity Ratio (SR) (A431/A431-B1) of the compound `COc1ccc(CNCc2cc(S(C)(=O)=O)c3cccnc3c2O)c(OC)c1` is ____.
16.7

Fill blank: measured Selectivity Ratio (SR) (A431/A431-B1) of the compound Cc1ccc2ccc(C3NCCc4sccc43)c(O)c2n1 (stereo not shown) is ____.
13.2

Fill blank: measured Selectivity Ratio (SR) (A431/A431-B1) of the compound `COc1ccccc1CNCc1cc([N+](=O)[O-])c2cccnc2c1O` is ____.
25.1

Fill blank: measured Selectivity Ratio (SR) (A431/A431-B1) of the compound Oc1c(C2NCCc3ccccc32)cc(Br)c2cccnc12 (stereo not shown) is ____.
13.7
